Biological target: 5-hydroxytryptamine receptor 6 (Homo sapiens)
Sequence (P50406 whole entry): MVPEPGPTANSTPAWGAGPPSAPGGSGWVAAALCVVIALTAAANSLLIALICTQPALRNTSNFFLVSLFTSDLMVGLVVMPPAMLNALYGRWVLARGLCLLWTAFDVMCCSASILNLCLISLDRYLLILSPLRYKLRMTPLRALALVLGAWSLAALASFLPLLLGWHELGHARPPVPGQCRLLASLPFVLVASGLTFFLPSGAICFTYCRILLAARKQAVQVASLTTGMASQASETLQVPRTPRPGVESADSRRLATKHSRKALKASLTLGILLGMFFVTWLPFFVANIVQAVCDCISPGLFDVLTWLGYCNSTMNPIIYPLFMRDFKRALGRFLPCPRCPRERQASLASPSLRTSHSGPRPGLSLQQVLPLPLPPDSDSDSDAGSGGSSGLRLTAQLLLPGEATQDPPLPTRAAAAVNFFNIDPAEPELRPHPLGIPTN
pKi: −log10 of the molar value.
We use 7 as the dividing line for pKi: on or above the line is 1, below is -1.

Solved entries (count: 3):
CC[C@@H](CO)NC(=O)[C@@H]1C=C2c3cccc4c3c(cn4C)C[C@H]2N(C)C1    -1
NCCc1c[nH]c2ccc(C(N)=O)cc12 [[3H]-5-carboxamidotryptamine]    -1
CN1CC(C(=O)N[C@]2(C)O[C@@]3(O)C4CCCN4C(=O)[C@H](Cc4ccccc4)N3C2=O)CC2c3cccc4[nH]cc(c34)CC21 (some centres not stated)    1

Query: Exam item: decide whether the reported pKi for CN1C[C@@H](NS(=O)(=O)N(C)C)C[C@@H]2c3cccc4c3c(cn4C)C[C@H]21 [MESULERGINE] is at least 7.
Reply: -1

Query: Exam item: decide whether the reported pKi for CCN(CC)C(=O)[C@@H]1C=C2c3cccc4[nH]c(Br)c(c34)C[C@H]2N(C)C1 [LSD,2-Bromo] is at least 7.
Reply: 1

* * *

Molecular target: 5-hydroxytryptamine receptor 4 (Mus musculus)
Sequence (P97288 whole entry): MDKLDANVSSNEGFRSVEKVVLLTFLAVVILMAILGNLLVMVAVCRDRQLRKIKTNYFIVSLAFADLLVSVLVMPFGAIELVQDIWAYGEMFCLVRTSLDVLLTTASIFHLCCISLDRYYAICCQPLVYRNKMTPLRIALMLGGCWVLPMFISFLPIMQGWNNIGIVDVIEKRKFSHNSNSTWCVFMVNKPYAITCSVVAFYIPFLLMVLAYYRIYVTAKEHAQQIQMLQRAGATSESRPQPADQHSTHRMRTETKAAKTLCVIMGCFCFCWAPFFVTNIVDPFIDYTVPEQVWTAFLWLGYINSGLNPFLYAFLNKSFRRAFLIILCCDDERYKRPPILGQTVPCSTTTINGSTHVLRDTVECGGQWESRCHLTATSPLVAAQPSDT
pKi: −log10 of the molar value.
endpoint: pKi

Query: What measured pKi is associated with NCCc1c[nH]c2ccccc12 on 5-hydroxytryptamine receptor 4 (Mus musculus)?
Reply: < 5.00

* * *

Target: 5-hydroxytryptamine receptor 4 (Rattus norvegicus, UniProt Q62758)
Sequence (Q62758 whole entry): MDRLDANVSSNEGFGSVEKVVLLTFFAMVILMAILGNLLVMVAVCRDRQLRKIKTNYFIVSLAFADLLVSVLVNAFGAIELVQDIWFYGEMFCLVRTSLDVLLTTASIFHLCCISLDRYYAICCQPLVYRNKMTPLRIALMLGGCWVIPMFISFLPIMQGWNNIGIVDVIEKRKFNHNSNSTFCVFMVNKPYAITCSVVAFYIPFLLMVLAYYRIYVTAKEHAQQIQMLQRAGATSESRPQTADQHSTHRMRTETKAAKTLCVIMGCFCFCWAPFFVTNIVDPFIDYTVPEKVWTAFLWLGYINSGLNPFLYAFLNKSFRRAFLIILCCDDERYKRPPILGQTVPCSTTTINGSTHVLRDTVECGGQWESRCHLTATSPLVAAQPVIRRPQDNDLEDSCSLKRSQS
Measured pKi of individual entries
Units for pKi: none; it is -log10 of a concentration expressed in mol/L.

COc1ccc2[nH]cc(CCN)c2c1    6.50

Query: What measured pKi is associated with COc1cc(N)c(Cl)cc1C(=O)NC1CN2CCC1CC2 (configuration not stated) [ZACOPRIDE,R] on 5-hydroxytryptamine receptor 4 (Rattus norvegicus, UniProt Q62758)?
Reply: 6.50
